Molecular target: Myc proto-oncogene protein (Homo sapiens) (UniProt P01106)
Sequence (P01106 whole entry, looked up): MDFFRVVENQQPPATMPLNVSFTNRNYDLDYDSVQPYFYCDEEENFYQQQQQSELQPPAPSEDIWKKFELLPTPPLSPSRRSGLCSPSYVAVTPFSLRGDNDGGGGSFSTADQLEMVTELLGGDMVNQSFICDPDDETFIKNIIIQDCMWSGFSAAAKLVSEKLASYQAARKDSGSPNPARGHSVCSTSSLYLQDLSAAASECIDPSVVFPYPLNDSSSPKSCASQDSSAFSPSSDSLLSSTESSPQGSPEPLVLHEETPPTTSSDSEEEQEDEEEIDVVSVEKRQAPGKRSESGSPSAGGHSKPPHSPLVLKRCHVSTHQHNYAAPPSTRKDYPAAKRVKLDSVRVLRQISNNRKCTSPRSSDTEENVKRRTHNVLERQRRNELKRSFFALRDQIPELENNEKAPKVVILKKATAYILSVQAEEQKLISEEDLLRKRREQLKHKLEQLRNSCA
Experiment: ATG_Myc_CIS: Attagene CIS-FACTORIAL HepG2 Assay for human Myelocytomatosis (Myc) Proto-Oncogene Transcription Factor (AID 2282990)
Conditions: HepG2, Attagene cis-reporter transcription factor activity; actives raise or lower the signal
Active and inactive are the calls of the source. How the source made its calls: active means hit-call score of the fitted dose curve at least 0.9, where 1 is the maximum; inactive means score below 0.9.
A correct response names exactly one class from label 1 for active, label 0 for inactive

Example cases with answers are listed next.
>  <COMPOUND>
OCC(CO)(CO)CO

>  <STUDY TARGET>
Myc proto-oncogene protein (Homo sapiens) (UniProt P01106)

>  <LABEL>
label 0

$$$$
>  <COMPOUND>
CCCCCCCC/C=C\CCCCCCCC(=O)OC[C@@H](O)[C@H]1OC[C@H](O)[C@H]1O

>  <STUDY TARGET>
Myc proto-oncogene protein (Homo sapiens) (UniProt P01106)

>  <LABEL>
label 0

$$$$

## Input State the result this test recorded for "Cc1ccc(S(=O)(=O)NC(=O)NN2CCCCCC2)cc1" .
## Output label 0

## Input State the result this test recorded for "S=P(N1CC1)(N1CC1)N1CC1" .
## Output label 0

## Input State the result this test recorded for "Cn1cc[nH]c1=S" .
## Output label 0

## Input State the result this test recorded for "OC[C@H]1O[C@@](CO)(O[C@H]2O[C@H](CO)[C@@H](O)[C@H](O)[C@H]2O)[C@@H](O)[C@@H]1O" .
## Output label 0

## Input State the result this test recorded for "C=CCc1cc(S(=O)(=O)c2ccc(O)c(CC=C)c2)ccc1O" .
## Output label 0

## Input State the result this test recorded for "c1ccc(C(O[C@@H]2CCCN(CCc3ccc4c(c3)OCO4)C2)c2ccccc2)cc1" .
## Output label 0

## Input State the result this test recorded for "CCCCCOC(C)=O" .
## Output label 0

## Input State the result this test recorded for "CCCCOC(=O)c1ccccc1" .
## Output label 0

## Input State the result this test recorded for "NNC(=O)c1ccncc1" .
## Output label 0

## Input State the result this test recorded for "O=C(O)CO" .
## Output label 0

## Input State the result this test recorded for "CCN(CC)C(=S)SSC(=S)N(CC)CC" .
## Output label 1

## Input State the result this test recorded for "O=S(=O)(O)CCC(F)(F)C(F)(F)C(F)(F)C(F)(F)C(F)(F)C(F)(F)F" .
## Output label 0

## Input State the result this test recorded for "C[C@]12C=CC(=O)C=C1CC[C@H]1[C@@H]3C[C@@H](O)[C@](O)(C(=O)CO)[C@@]3(C)C[C@H](O)[C@@]12F" .
## Output label 0

## Input State the result this test recorded for "COS(C)(=O)=O" .
## Output label 0

## Input State the result this test recorded for "O=C(O)c1ccc2c(c1)nc(C(=O)NC1CCN(C3CC3)CC1)n2Cc1cc(-c2ccc(Cl)s2)on1" .
## Output label 0

## Input State the result this test recorded for "OCCNCCO" .
## Output label 0

## Input State the result this test recorded for CC(C)CC(C)O (stereo not drawn) .
## Output label 0

## Input State the result this test recorded for "Cc1nc(-c2ccccn2)ncc1C(=O)Nn1cc(C)c2cc(F)ccc21" .
## Output label 0

## Input State the result this test recorded for "OCc1ccccc1" .
## Output label 0

## Input State the result this test recorded for "OC(Cn1cncn1)(Cn1cncn1)c1ccc(F)cc1F" .
## Output label 0

## Input State the result this test recorded for "O=S1(=O)CCCO1" .
## Output label 0
